tested on: DBTRG-05MG (Glioblastoma); assay: combination Emax (second highest fraction inhibited in the dose matrix, 72 h); higher = more inhibition; extreme values may be limits of the assay
readout.label: combination Emax

- NC1(C(=O)N[C@@H](CCO)c2ccc(Cl)cc2)CCN(c2ncnc3[nH]ccc23)CC1 [Capivasertib] + Cn1cnc2c(F)c(Nc3ccc(Br)cc3Cl)c(C(=O)NOCCO)cc21 [Selumetinib] (first compound max 10 µM, 7x7, partner max 10 µM): 0.431
- CN(C)CCCOc1ccc(-c2ccc3ncc4c(c3c2)n(C2CCOCC2)c(=O)n4C)cn1 [AZD0156] + C[C@@H]1COCCN1C2=NC(=NC(=C2)C3(CC3)[S@](=N)(=O)C)C4=C5C=CNC5=NC=C4 [AZD6738] (first compound max 1 µM, 7x7, partner max 10 µM): 0.251
- CN(CCO)CC[C@H](CSc1ccccc1)Nc1ccc(S(=O)(=O)NC(=O)c2ccc(N3CCC([C@@H](O)c4ccccc4-c4ccc(Cl)cc4)CC3)cc2)cc1S(=O)(=O)C(F)(F)F [AZD4320] + C=CCn1c(=O)c2cnc(Nc3ccc(N4CCN(C)CC4)cc3)nc2n1-c1cccc(C(C)(C)O)n1 [AZD1775] (first compound max 1 µM, partner max 1 µM): 0.92
